Collected set of IC50 measured with Cytochrome P450 2C19 (Homo sapiens, UniProt P33261) across studies.
READOUT_LABEL: IC50

> print(dat)
                          compound.structure  readout.label  experimental.value
 1  C[C@H]1SC(N)=N[C@](C)(c2cc(NC(=O)c3coc(CF)n3)ccc2F)[C@H]1F           IC50             ≥ 20 µM
 2  C[C@]1(c2cc(NC(=O)c3ccc(OCF)cn3)ccc2F)N=C(N)SCC12CC(F)(F)C2           IC50             ≥ 20 µM
 3  NC(=O)c1cc(Cc2cnc(Nc3ccc(Cl)cc3)c3ccccc23)ccn1           IC50              1.2 µM
 4  O=C(c1ccc(NC2CCC(F)(F)CC2)nc1F)c1c[nH]c2ncnc(NCC(F)(F)F)c12           IC50             > 10 µM
 5  CO[C@H]1CN(C2CCN(C(=O)c3cncn3[C@@H](C)c3ccccc3-c3ccc(F)cc3)CC2)CC[C@H]1O           IC50             > 10 µM
 6  CCNc1ncnc2[nH]cc(C(=O)c3ccc(Nc4ccc(C5CC5)nc4)nc3F)c12           IC50             > 10 µM
 7  CCn1cc(Nc2ccc(Cc3c[nH]c4ncnc(OC)c34)c(F)n2)cn1           IC50             > 10 µM
 8  Cl.Cn1nc(-c2ccc(OC/C(=C/F)CN)cc2)nc1C(F)F           IC50               17 µM
 9  CCc1ccc(Nc2ccc(C(=O)c3c[nH]c4ncnc(NCC5CC5)c34)c(F)n2)cn1           IC50             > 10 µM
10  CO/C(N)=N\C1(c2cccc(NC(=O)c3cnc(C)cn3)c2)CC1           IC50             > 20 µM
11  C[C@@H](c1ccccc1-c1ccc(F)cc1)n1cncc1C(=O)N1CCC[C@H]2OCCN[C@@H]2C1           IC50             > 10 µM
12  Cc1nc(C)c(-c2csc(NC(=O)[C@@H]3CCC(=O)N3)n2)s1           IC50             > 20 µM
13  C[C@@H](C#N)NC(=O)c1ccc(-c2nc(Nc3cnn(C4CCN(C)CC4)c3)ncc2F)cc1           IC50             > 50 µM
14  C[C@H](C(=O)N[C@H](CO)c1cccc(F)c1)N1Cc2ccc(-c3nc(NC4CCOCC4)ncc3F)c(F)c2C1=O           IC50             > 10 µM
15  C[C@H]1[C@H](C(F)(F)F)OC(N)=N[C@]1(C)c1cc(NC(=O)c2ccc(C#N)cn2)ccc1F           IC50             ≥ 20 µM
16  C[C@H](c1ccc(F)cc1)n1cncc1CN1CCN(S(=O)(=O)c2cnc(N3CCNCC3)s2)CC1           IC50             2.53 µM
